Cited source for all entries: patent US10221177B2

target: human TRPA1 (Homo sapiens (Human)); assay: In vitro inhibition of human TRPA1, whole cell patch configuration; assay type: cell-based; settings: current activation 10 μM AITC, tested concentrations 320 pM to 3.2 μM, read-out: hTRPA1 IC50
Sequence (O75762 whole entry): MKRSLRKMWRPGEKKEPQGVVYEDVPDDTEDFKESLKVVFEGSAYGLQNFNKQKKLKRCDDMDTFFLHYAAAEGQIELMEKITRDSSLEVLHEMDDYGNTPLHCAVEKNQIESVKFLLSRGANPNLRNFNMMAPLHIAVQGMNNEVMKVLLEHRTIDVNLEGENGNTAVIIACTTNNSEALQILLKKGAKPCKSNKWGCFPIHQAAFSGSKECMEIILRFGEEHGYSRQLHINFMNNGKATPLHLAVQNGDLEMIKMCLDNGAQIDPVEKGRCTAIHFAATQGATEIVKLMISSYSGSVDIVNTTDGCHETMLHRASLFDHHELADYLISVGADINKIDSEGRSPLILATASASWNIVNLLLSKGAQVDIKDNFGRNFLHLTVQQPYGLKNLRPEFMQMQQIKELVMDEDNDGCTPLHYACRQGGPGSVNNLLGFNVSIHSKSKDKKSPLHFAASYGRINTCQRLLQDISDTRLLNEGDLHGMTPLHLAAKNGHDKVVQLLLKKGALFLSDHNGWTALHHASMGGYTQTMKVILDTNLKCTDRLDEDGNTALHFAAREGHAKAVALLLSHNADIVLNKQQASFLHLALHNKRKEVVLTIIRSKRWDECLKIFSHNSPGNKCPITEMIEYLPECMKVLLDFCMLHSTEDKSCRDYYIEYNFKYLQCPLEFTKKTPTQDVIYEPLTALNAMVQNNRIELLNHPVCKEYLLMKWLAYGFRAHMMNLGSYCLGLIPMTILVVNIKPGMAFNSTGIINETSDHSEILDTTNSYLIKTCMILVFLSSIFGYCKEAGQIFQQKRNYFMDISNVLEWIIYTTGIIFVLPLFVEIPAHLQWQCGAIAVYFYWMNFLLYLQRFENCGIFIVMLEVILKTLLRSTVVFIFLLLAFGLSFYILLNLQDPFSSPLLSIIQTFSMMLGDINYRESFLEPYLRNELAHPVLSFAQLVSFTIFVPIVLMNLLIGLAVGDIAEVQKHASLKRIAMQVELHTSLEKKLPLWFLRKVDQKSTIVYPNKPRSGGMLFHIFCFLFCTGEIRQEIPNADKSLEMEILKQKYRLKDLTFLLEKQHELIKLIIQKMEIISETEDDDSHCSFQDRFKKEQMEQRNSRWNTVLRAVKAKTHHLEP
measure: IC50 (nM)

INSERT INTO results (molecule, numeric_result) VALUES
  ('Cc1ncc(-c2cccc(NC(=O)Cn3cnc4c3c(=O)n(CCCO)c(=O)n4C)n2)cc1C(F)(F)F [Compound 236]', 711),
  ('CC(=O)Cn1c(=O)c2c(nc(C)n2CC(=O)Nc2cccc(-c3cnc(C(F)(F)F)nc3)n2)n(C)c1=O [Compound 194]', 62),
  ('Cc1cc(Cn2c(=O)c3c(ncn3[C@@H](C)C(=O)Nc3ccnc(-c4cnc(C)c(C(F)(F)F)c4)n3)n(C)c2=O)no1 [Compound 110]', 1),
  ('COCC(=O)Cn1c(=O)c2c(ncn2CC(=O)Nc2csc(-c3cnc(C(F)(F)F)c(C)c3)n2)n(C)c1=O [Compound 255]', 13),
  ('COCC(=O)Cn1c(=O)c2c(ncn2CC(=O)Nc2csc(-c3cnc(C)c(C(F)(F)F)c3)n2)n(C)c1=O [Compound 254]', 14),
  ('Cc1cc(-c2nc(NC(=O)[C@H](C)n3cnc4c3c(=O)n(CC(F)(F)F)c(=O)n4C)cs2)cnc1C(F)(F)F [Compound 161]', 219),
  ('Cn1c(=O)n(Cc2ccccn2)c(=O)c2c1ncn2CC(=O)Nc1cccc(-c2cnc(C(F)(F)F)nc2)n1 [Compound 186]', 74);
